Study target: T1, CD134 protein (His-tagged, Sino Biological Inc. 10481-H08H) (human, UniProt P43489 29-216)
T1 construct: bought protein coated on ELISA plates; also called OX40; TNFRSF4; not shown: His tag
T1 sequence (looked up): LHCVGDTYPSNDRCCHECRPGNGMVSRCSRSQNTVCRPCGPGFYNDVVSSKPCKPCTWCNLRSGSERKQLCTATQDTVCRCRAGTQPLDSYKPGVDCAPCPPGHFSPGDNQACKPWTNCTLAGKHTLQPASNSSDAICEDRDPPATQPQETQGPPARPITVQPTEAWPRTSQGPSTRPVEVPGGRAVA
Test details: ELISA, coated His-tagged CD134; also: test concentration or dose not given here
Provide the recorded ELISA [abs. corr.] for the entries that follow.
Numbers only, in abs. corr..

Binder: P018.S.02.A.F03 (antibody, V domains shown, V regions on human Ig constant parts; also called AB134_2) VH: QSVEESGGRLVTPGTPLTLTCTASGFSLSRYYMSWVRQAPGKGLEWIGFINTAGSAYYASWAKGRFTISRTSTTVDLKMTSLTTEDTATYFCARDLSRFSLWGRGTLVIVSS VL: AAVLTQTPSPVSAAVGGTVTINCQASPSVYSDYLSWFQKKPGQPPKLLIYWASTLASGVPSRFSGSGSGTQFTLTISDLESDDVATYYCAGGYSGNSDNWAFGGGTDVVVK
ELISA [abs. corr.], abs. corr.: 2.85

# ---- query binder ----
Return ELISA [abs. corr.] for the following binder: P018.S.12.A.E06 (antibody, V domains shown, V regions on human Ig constant parts; also called AB134_77) VH: QSVEESGGRLVTPGTPLTLTCTVSGFSLSNYHMCWVRRAPGKGLEWIGSITTADETTHYANWAKGRFTISETSTTVDLRITSPTTEDTAIYFCGRTIRYDDYAVDLWGPGTLVTVSS VL: DLVMTQTPASMSEPVGGTVTIKCQASESVGGYLAWYQQKAGQRPKLLIYAAGNLASGVPSRFKGSGSGTEYTLTISDLESADAATYYCQCTYFDSSYVGFGGGTEVVVR
2.3
